Where these numbers come from: patent US11547681B2

Property: Measured concentration of analyte PEA, 30 min; scope: individual compounds
# assay text: in vitro
# measurement parameters: male, Sprague-Dawley, rat, 30 min, 1 μM
observed property: Measured concentration of analyte PEA, 30 min (µM)

compound	number
CCCCCCCCCCCCCCCC(=O)NCCOC(=O)CCC(=O)OCC(COC(=O)CCCCCCC)OC(=O)CCCCCCC (stereo not drawn) [Compound I-3, PEA-Succinate-Glycerol-Di-Caprylic]	0.0067
CCCCCCCCCCCCCCCC(=O)NCCOC(=O)CCC(=O)OCC(COC(=O)CCC)OC(=O)CCC (stereo not drawn)	0.0086
CCCCCCCCCCCCCCCC(=O)NCCOC(=O)CCC(=O)OCC(O)CO (stereo not drawn)	0
